Here the recorded kon is given for each entry.
biological target: T1, canine FcRn (canine); experiment: SPR, pH 5.5, FcRn 100-800 nM over captured Fc
T1 construct: Injected in solution as SPR analyte
// return numeric value only (unit: M⁻¹ s⁻¹, not printed)

wild-type canine IgG.B Fc (CH2 and CH3 domains) with upstream SASA tag (Fc fusion) APEMLGGPSVFIFPPKPKDTLLIARTPEVTCVVVDLDPEDPEVQISWFVDGKQMQTAKTQPREEQFNGTYRVVSVLPIGHQDWLKGKQFTCKVNNKALPSPIERTISKARGQAHQPSVYVLPPSREELSKNTVSLTCLIKDFFPPDIDVEWQSNGQQEPESKYRTTPPQLDEDGSYFLYSKLSVDKSRWQRGDTFICAVMHEALHNHYTQESLSHSPGK : 168000
canine IgG.B Fc YTE variant (L252Y/A254T/T256E) with SASA tag (Fc fusion) APEMLGGPSVFIFPPKPKDTLYITREPEVTCVVVDLDPEDPEVQISWFVDGKQMQTAKTQPREEQFNGTYRVVSVLPIGHQDWLKGKQFTCKVNNKALPSPIERTISKARGQAHQPSVYVLPPSREELSKNTVSLTCLIKDFFPPDIDVEWQSNGQQEPESKYRTTPPQLDEDGSYFLYSKLSVDKSRWQRGDTFICAVMHEALHNHYTQESLSHSPGK : 250000
canine IgG.B Fc variant L252Y with SASA tag (Fc fusion) APEMLGGPSVFIFPPKPKDTLYIARTPEVTCVVVDLDPEDPEVQISWFVDGKQMQTAKTQPREEQFNGTYRVVSVLPIGHQDWLKGKQFTCKVNNKALPSPIERTISKARGQAHQPSVYVLPPSREELSKNTVSLTCLIKDFFPPDIDVEWQSNGQQEPESKYRTTPPQLDEDGSYFLYSKLSVDKSRWQRGDTFICAVMHEALHNHYTQESLSHSPGK : 275000

// recorded kon for canine IgG.B Fc variant N434R with SASA tag (Fc fusion) APEMLGGPSVFIFPPKPKDTLLIARTPEVTCVVVDLDPEDPEVQISWFVDGKQMQTAKTQPREEQFNGTYRVVSVLPIGHQDWLKGKQFTCKVNNKALPSPIERTISKARGQAHQPSVYVLPPSREELSKNTVSLTCLIKDFFPPDIDVEWQSNGQQEPESKYRTTPPQLDEDGSYFLYSKLSVDKSRWQRGDTFICAVMHEALHRHYTQESLSHSPGK : 440000
